# target-desc: rD2R (Rattus norvegicus, UniProt P61169)
# Sequence (P61169 whole entry): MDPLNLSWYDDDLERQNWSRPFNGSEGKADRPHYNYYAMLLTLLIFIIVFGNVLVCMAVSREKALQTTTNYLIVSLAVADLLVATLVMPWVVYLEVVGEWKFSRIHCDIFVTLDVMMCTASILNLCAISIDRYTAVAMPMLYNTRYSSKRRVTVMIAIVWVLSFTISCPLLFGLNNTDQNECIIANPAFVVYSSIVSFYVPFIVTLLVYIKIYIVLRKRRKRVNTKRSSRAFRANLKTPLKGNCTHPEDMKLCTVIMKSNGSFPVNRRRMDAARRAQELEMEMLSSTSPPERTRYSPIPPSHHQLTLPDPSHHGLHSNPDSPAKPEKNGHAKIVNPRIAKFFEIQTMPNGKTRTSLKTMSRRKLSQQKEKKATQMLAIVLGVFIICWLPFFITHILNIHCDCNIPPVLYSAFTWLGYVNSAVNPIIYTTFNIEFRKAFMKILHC
# test-details: Antagonistic test of D2 receptor (cAMP radioimmunoassay, Forskolin + Dopamine, CHO-rD2 cells)
# test-parameters: 10 μM Forskolin + 10 μM Dopamine, cAMP generated
Structures can show the parent of a compound that is named as a salt.
Below: a set of entries, each annotated with reported IC50.
Your answer is read as µM, so omit the unit and give the number.

// worked examples, IC50 included
compound: O=C1CCc2ccc(OCCCCN3CCC(c4noc5cc(F)ccc45)CC3)cc2N1 [II-1, hydrochloride]
IC50 / µM: 3.38

compound: O=C1Cc2ccc(OCCCCN3CCC(c4noc5cc(F)ccc45)CC3)cc2N1 [IV-1]
IC50 / µM: 198

// moving on: another record for IC50
Quote IC50 with test system rD2R (Rattus norvegicus, UniProt P61169) for O=C1CCc2ccc(OCCCCN3CCN(c4nsc5ccccc45)CC3)cc2N1 [III-1, hydrochloride]
56.4
